# testTarget: HER2 (pY 1248) in Calu3 cells (Homo sapiens)
# Construct: endogenous in cells; host or cells: Calu-3 (HTB-55)
# Sequence (P04626 23-1255): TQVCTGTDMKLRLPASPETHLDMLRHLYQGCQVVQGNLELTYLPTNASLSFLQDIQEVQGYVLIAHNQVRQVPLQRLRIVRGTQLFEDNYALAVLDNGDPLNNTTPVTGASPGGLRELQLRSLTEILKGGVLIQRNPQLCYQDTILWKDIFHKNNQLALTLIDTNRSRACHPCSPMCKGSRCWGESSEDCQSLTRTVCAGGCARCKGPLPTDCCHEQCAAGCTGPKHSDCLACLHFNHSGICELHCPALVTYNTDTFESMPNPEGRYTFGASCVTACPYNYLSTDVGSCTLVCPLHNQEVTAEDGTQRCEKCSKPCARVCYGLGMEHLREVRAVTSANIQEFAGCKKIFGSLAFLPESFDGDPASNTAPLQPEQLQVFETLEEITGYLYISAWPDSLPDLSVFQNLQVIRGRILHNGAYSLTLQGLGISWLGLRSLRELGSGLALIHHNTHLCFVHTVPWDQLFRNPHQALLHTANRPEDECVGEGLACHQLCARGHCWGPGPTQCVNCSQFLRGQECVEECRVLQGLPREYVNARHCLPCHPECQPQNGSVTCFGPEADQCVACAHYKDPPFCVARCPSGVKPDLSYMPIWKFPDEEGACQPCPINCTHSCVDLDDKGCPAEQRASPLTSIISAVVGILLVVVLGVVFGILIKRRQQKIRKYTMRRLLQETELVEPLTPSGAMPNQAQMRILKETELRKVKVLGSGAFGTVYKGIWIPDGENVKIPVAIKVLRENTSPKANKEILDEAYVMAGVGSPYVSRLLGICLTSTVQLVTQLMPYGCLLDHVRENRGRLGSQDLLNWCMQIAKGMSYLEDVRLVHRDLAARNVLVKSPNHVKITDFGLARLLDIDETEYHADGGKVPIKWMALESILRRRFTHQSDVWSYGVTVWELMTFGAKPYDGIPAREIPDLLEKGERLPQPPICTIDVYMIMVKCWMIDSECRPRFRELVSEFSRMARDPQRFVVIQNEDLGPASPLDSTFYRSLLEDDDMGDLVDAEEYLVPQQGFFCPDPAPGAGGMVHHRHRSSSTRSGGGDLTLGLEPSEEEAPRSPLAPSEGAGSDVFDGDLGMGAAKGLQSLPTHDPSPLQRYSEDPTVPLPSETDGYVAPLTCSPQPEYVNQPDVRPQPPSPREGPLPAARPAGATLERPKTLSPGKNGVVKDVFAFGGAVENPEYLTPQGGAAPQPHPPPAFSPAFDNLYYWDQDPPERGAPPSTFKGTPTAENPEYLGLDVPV
# protocolDetails: Inhibition of HER2 phosphorylation in Calu3 tumor cell line
# Assay type: cell-based
# conditionSet: Calu-3, compound concentration 1 μM, 16 h incubation, percentage of the DMSO treated control, read-out: Percent inhibition of HER2-phosphorylation
measuredMetric: inhibition at 1 µM (%)

>>> measurement("FC(F)(F)c1ccc(/C=C/c2nc(COc3ccc(COCCn4ccnn4)cc3)co2)cc1 [reference compound 2, reference compound]")
54
>>> measurement("FC1(F)Oc2ccc(/C=C/c3nc(COc4ccc(COCCn5ccnn5)cc4)co3)cc2O1")
85.8
>>> measurement("FC(F)(F)Oc1ccc(/C=C/c2nc(COc3ccc(COCCn4ccnn4)cc3)co2)cc1")
78.6
>>> measurement("FC(F)(F)Sc1ccc(/C=C/c2nc(COc3ccc(COCCn4ccnn4)cc3)co2)cc1")
73.4
>>> measurement("FC(F)Oc1ccc(/C=C/c2nc(COc3ccc(COCCn4ccnn4)cc3)co2)cc1")
69.6
